- protocol_summary: ATG_ISRE_CIS: Attagene CIS-FACTORIAL HepG2 Assay for human Interferon Regulatory Factor 1 (IRF1) binding to an Interferon-Stimulated Response Element (ISRE) (AID 2282948)
- stated_conditions: HepG2 ISRE cis-reporter (Attagene), mRNA transcription readout; actives raise or lower the signal
- Procedure: ATG_CIS is a cell-based, multiplexed-readout assay that uses HepG2, a human liver cell line, with measurements taken at 24 hours after chemical dosing in a 24-well plate.ATG_ISRE_CIS is one of 52 assay component(s) measured or calculated from the ATG_CIS assay. […] This assay endpoint, ATG_ISRE_CIS, was analyzed with bidirectional fitting relative to DMSO as the negative control and baseline of activity. […]
Calls of active or inactive are those of the source. How the source made its calls: active means hit-call score of the fitted dose curve at least 0.9, where 1 is the maximum; inactive means score below 0.9.
Respond with a class label; see active, inactive

Consider the worked cases shown below.
[[record]]
compound = "Nc1ccccc1"
assigned_category = "inactive"

[[record]]
compound = "CCCCCCCCCCCCCCCC[N+](C)(C)C"
assigned_category = "active"

[[record]]
compound = "CCc1cc(C)cc(CC)c1-c1c(OC(=O)C(C)(C)C)n2n(c1=O)CCOCC2"
assigned_category = "inactive"

[[record]]
compound = "CC(C)(c1cc(Cl)c(O)c(Cl)c1)c1cc(Cl)c(O)c(Cl)c1"
assigned_category = "active"

[[record]]
compound = "C[C@]12CC[C@H](O)C[C@H]1CC[C@@H]1[C@@H]2C[C@@H](O)[C@]2(C)[C@@H](C3=CC(=O)OC3)CC[C@]12O"
assigned_category = "active"

[[record]]
compound = "Oc1ccc(Cl)cc1"
assigned_category = "inactive"


// query Called result for NNc1ccccc1
// result inactive

* * *

- tgt: Cellular tumor antigen p53 (Homo sapiens)
- protocol_summary: TOX21_p53_BLA_p4_ratio: Tox21 HCT-116 p53 Agonism Beta-lactamase Assay, Ratio, Phase 4 (AID 2283601)
Results filed as inconclusive are left out. Active and inactive are the calls of the source. The calls were made as follows: active = hit-call score of the fitted dose curve at least 0.9, where 1 is the maximum; inconclusive = response in the unintended direction; inactive = score below 0.9.
Respond with a class label; see active, inactive

[[record]]
compound = "NCc1cccnc1"
assigned_category = "inactive"

[[record]]
compound = "CC(C)(Cl)Cl"
assigned_category = "inactive"

[[record]]
compound = "SCc1ccccc1"
assigned_category = "inactive"

[[record]]
compound = "OC(c1ccccc1)(c1ccccc1)C1CN2CCC1CC2 (configuration not stated)"
assigned_category = "inactive"

[[record]]
compound = "CCCCCCC1CCOC1=O (configuration not stated)"
assigned_category = "inactive"

[[record]]
compound = "O=C1OC2(c3cc(Br)c(O)cc3Oc3c2cc(Br)c(O)[c]3[Hg])c2ccccc21 (configuration not stated)"
assigned_category = "inactive"

[[record]]
compound = "CC(=O)c1cc2c(cc1C)C(C)(C)C(C)CC2(C)C (configuration not stated)"
assigned_category = "inactive"

[[record]]
compound = "COP(=S)(OC)Oc1ccc(S(N)(=O)=O)cc1"
assigned_category = "inactive"

[[record]]
compound = "CCOC(=O)N(C)C(=O)CSP(=S)(OCC)OCC"
assigned_category = "inactive"

[[record]]
compound = "Cc1nc(N)nc(N)n1"
assigned_category = "inactive"


// query Called result for CCC[N+](=O)[O-]
// result inactive

// query Called result for CCCCCCCCCCCC#N
// result inactive

// query Called result for Clc1ccc([C@@H]2C[C@H]3CC[C@@H]2N3)cn1
// result inactive

// query Called result for C/C(=C\c1csc(C)n1)[C@@H]1C[C@@H]2O[C@]2(C)CCC[C@H](C)[C@H](O)[C@@H](C)C(=O)C(C)(C)[C@@H](O)CC(=O)O1
// result active

// query Called result for CC[C@H](OC(C)=O)C(C[C@H](C)NC)(c1ccccc1)c1ccccc1
// result inactive

// query Called result for O=[N+]([O-])c1cc(C(F)(F)F)c(Cl)c([N+](=O)[O-])c1Cl
// result active

// query Called result for CC(O)CN(CC(C)O)CC(C)O (configuration not stated)
// result inactive
